# measured_on: Aldo-keto reductase family 1 member C3 (Homo sapiens)
# Sequence (P42330 whole entry): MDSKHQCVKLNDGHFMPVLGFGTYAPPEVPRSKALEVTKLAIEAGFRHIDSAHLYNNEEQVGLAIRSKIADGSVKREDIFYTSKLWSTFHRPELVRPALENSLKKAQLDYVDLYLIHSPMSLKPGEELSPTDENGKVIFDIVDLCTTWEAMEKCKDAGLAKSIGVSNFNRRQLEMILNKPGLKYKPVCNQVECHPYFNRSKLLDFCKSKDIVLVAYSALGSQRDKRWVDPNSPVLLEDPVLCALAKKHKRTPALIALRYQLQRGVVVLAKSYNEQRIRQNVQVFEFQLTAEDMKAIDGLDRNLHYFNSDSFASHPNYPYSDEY
# assay_notes: biochemical
# Description: Inhibition of human recombinant N-terminal His6-tagged AKR1C3 expressed in Escherichia coli BL21(DE3) cells using 8-Acetyl-2,3,5,6-tetrahydro-1H,4H-11-oxa-3a-aza-benzo[de]anthracen-10-one as substrate after 1 hr by fluorimetric analysis
readout_kind: pIC50
Give only the number. pIC50 is defined as minus log10 of concentration in molar units.

Return reported pIC50; argument: O=C(O)c1cccc(S(=O)(=O)N2CCc3cccc(Cl)c3C2)c1
7.72

Return reported pIC50; argument: O=C(O)c1cccc(S(=O)(=O)N2CCc3ccc(C#Cc4ccc(OC(F)(F)F)cc4)cc3C2)c1
5.88

Return reported pIC50; argument: O=C(O)c1cccc(S(=O)(=O)N2CCc3ccccc32)c1
6.68

Return reported pIC50; argument: CNC(=O)c1cccc(S(=O)(=O)N2CCc3ccccc3C2)c1
7.30

Return reported pIC50; argument: O=C(O)c1cccc(S(=O)(=O)N2CCc3c(I)cccc3C2)c1
7.85
